# tgt: T1, nSR100 (Mus musculus, UniProt Q8BKA3)
# T1 construct: host or cells: mouse N2A cells
# T1 sequence (Q8BKA3 1-608): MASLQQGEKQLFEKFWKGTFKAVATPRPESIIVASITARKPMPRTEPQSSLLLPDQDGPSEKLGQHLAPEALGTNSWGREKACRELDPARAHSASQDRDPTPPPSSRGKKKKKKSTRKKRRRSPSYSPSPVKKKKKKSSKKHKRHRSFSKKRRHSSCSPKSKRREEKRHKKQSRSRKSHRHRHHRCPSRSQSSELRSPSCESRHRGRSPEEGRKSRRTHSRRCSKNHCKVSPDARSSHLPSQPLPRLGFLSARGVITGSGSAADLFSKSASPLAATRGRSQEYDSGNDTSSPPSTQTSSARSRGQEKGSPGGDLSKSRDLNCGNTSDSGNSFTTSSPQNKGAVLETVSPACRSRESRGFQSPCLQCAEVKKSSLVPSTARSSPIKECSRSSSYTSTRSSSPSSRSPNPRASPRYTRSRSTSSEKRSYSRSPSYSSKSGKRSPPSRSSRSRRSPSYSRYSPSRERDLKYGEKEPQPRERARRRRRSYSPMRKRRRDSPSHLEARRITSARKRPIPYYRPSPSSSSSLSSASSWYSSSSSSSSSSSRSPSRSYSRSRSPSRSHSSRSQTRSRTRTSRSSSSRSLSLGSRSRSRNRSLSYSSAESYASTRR
# assay-protocol: AP-MS nSR100 interaction partners from mouse N2A cells (Table 5)
# Format: binding
# protocol-conditions: bait Srrm4, 2 replicates
quantity-kind: AvgSpec (average number of spectra per replicate)
Answer field: number only, no words.

Please list AvgSpec (average number of spectra per replicate) recorded for the molecule Rbmx2 (protein, UniProt Q8R0F5 1-326, looked up) RNA-binding motif protein, …: MNPLTKVKLINELNEREVQLGVAEKVSWHSEYKHSAWIFVGGLPYELTEGDIICVFSQYGEIVNINLVRDKKTGKSKGFCFLCYEDQRSTVLAVDNFNGIKIKGRTIRVDHVSNYRAPQESEDVDDVTRELQEKGCGVKTPPSSPPEVSEDEDAKLTKKHKKDKKEKKKRKKEKTEGQAQAEQPSCSRSATVKEKKDERASRKHSSKTSERAQKSEHRESKKSHSGSPDGRSSYHARAEDPECKARKEKPKHEHKSASRREAEEKSRERERGRSSGTHSGRHRGHSDGRSHRSRSRSRSPDKSHRHKKYRHSRERDSYHGSDRRHH
4.5

Read the entry Grpel1 (protein, UniProt Q99LP6 28-217, looked up) GrpE protein homolog 1, …: CTATKQKNNGQNLDEDLGHCEPKTDPPSADKTLLEEKAKLEEQLRETMEKYKRALADTENLRQRSQKLVEEAKLYGIQGFCKDLLEVADILEKATQSVPKEEISNNNPHLKSLYEGLVMTEVQIQKVFTKHGLLRLDPIGAKFDPYEHEALFHTPVEGKEPGTVALVSKVGYKLHGRTLRPALVGVVKDA and write its reported AvgSpec (average number of spectra per replicate).
16.5

Respond only with AvgSpec (average number of spectra per replicate) recorded for Snrpa (protein, UniProt Q62189 1-287, looked up) U1 small nuclear …: MATIATMPVPETRANHTIYINNLNEKIKKDELKKSLYAIFSQFGQILDILVSRIMKMRGQAFVIFKEVTSATNALRSMQGFPFYDKPMRIQYAKTDSDIIAKMKGTYVERDRKREKRKPKSQETPAAKKAVQGGAAAPVVGAVQPVPGMPPMPQAPRIMHHMPGQPPYMPPPGMIPPPGLAPGQIPPGAMPPQQLMPGQMPPAQPLSENPPNHILFLTNLPEETNELMLSMLFNQFPGFKEVRLVPGRHDIAFVEFDNEVQAGAARDALQGFKITQNNAMKISFAKK
39

Identify measured AvgSpec (average number of spectra per replicate) associated with Snrpb2 (protein, UniProt Q9CQI7 1-225, looked up) U2 small nuclear …: MDIRPNHTIYINNMNDKIKKEELKRSLYALFSQFGHVVDIVALKTMKMRGQAFVIFKELGSSTNALRQLQGFPFYGKPMRIQYAKTDSDIISKMRGTFADKEKKKEKKKAKTMEQAAAAANKKPGQGTPNAANTQGTAAPNPQVPDYPPNYILFLNNLPEETNEMMLSMLFNQFPGFKEVRLVPGRHDIAFVEFENDGQAGAARDALQGFKITPSHAMKITYAKK
5.5

// fetch AvgSpec (average number of spectra per replicate) given entry Necap1 (protein, UniProt Q9CR95 1-275, looked up) Adaptin ear-binding …: MAAELEYESVLCVKPDVSVYRIPPRASNRGYRASDWKLDQPDWTGRLRITSKGKIAYIKLEDKVSGELFAQAPVEQYPGIAVETVTDSSRYFVIRIQDGTGRSAFIGIGFTDRGDAFDFNVSLQDHFKWVKQETEISKESQEMDNRPKLDLGFKEGQTIKLSIGNITAKKGGASKPRASGTGGLSLLPPPPGGKVTIPPPSSSVAISNHVTPPPIPKSNHGGNDSDILLDLDSPAPVSTSAPAPVSTSNDLWGDFSTASSSVPNQAPQPSNWVQF
12.5

Provide measured AvgSpec (average number of spectra per replicate) value, entry: Csnk2a2 (protein, UniProt O54833 1-350, looked up) Casein kinase II subunit …: MPGPAAGSRARVYAEVNSLRSREYWDYEAHVPSWGNQDDYQLVRKLGRGKYSEVFEAINITNNERVVVKILKPVKKKKIKREVKILENLRGGTNIIKLIDTVKDPVSKTPALVFEYINNTDFKQLYQILTDFDIRFYMYELLKALDYCHSKGIMHRDVKPHNVMIDHQQKKLRLIDWGLAEFYHPAQEYNVRVASRYFKGPELLVDYQMYDYSLDMWSLGCMLASMIFRKEPFFHGQDNYDQLVRIAKVLGTDELYGYLKKYHIDLDPHFNDILGQHSRKRWENFIHSENRHLVSPEALDLLDKLLRYDHQQRLTAKEAMEHPYFYPVVKEQSQPCAENTVLSSGLTAAR
20

In one line, give reported AvgSpec (average number of spectra per replicate) of the entry Luc7l (protein, UniProt Q9CYI4 1-371, looked up) Putative RNA-binding protein …: MSAQAQMRALLDQLMGTARDGDETRQRVKFTDDRVCKSHLLDCCPHDILAGTRMDLGECTKIHDLALRADYEIASKERDLFFELDAMDHLESFIAECDRRTELAKKRLAETQEEISAEVSAKAEKVHELNEEIGKLLAKAEQLGAEGNVDESQKILMEVEKVRAKKKEAEEEYRNSMPASSFQQQKLRVCEVCSAYLGLHDNDRRLADHFGGKLHLGFIQIREKLDQLRKTVAEKQEKRNQDRLRRREEREREERLGRRSGSRTRDRRRSRSRDRRRRRSRSTSRERRKFSRSRSRDRYRRHRSRSRSHSRGHRRASRDRSTKYKFSRERSLREESWEYGRNERGPTDWRLENSNGKTASRRSEEKEAGEI .
19

Supply measured AvgSpec (average number of spectra per replicate) of Luc7l2 (protein, UniProt Q7TNC4 1-392, looked up) Putative RNA-binding protein …: MSAQAQMRAMLDQLMGTSRDGDTTRQRIKFSDDRVCKSHLLNCCPHDVLSGTRMDLGECLKVHDLALRADYEIASKEQDFFFELDAMDHLQSFIADCDRRTEVSKKRLAETQEEISAEVAAKAERVHELNEEIGKLLAKVEQLGAEGNVEESQKVMDEVEKARAKKREAEEVYRNSMPASSFQQQKLRVCEVCSAYLGLHDNDRRLADHFGGKLHLGFIEIREKLEELKRVVAEKQEKRNQERLKRREEREREEREKLRRSRSHSKNPKRSRSREHRRHRSRSMSRERKRRTRSKSREKRHRHRSRSSSRSRSRSHQRSRHSSRDRSRERSKRRSSKERFRDQDLASRDRDRSSRDRSPRDRDRKDKKRSYESANGRSEDRRSSEEREAGEI in your reply.
39
